Test system: Escherichia coli
experiment_summary: Antimicrobial activity against rifampin-resistant Escherichia coli J53 transconjugated with Proteus vulgaris Pv9 expressing beta-lactamase PER-1 by […]
Type: functional
observed_property: MIC (µg/mL)
The reply should contain only the number, in µg/mL.

State, in one line, measured MIC of CO/N=C(\C(=O)N[C@@H]1C(=O)N2C(C(=O)O)=C(COC(C)=O)CS[C@H]12)c1csc(N)n1 [CEFOTAXIME] 32

State, in one line, measured MIC of C[C@@H](O)[C@H]1C(=O)N2C(C(=O)O)=C(SCCNC=N)C[C@H]12 [IMIPENEM ANHYDROUS] 0.25

State, in one line, measured MIC of CCN1CCN(C(=O)N[C@@H](C(=O)N[C@@H]2C(=O)N3[C@@H]2SC(C)(C)[C@@H]3C(=O)O)c2ccccc2)C(=O)C1=O [PIPERACILLIN] 32

State, in one line, measured MIC of CO/N=C(\C(=O)N[C@@H]1C(=O)N2C(C(=O)[O-])=C(C[N+]3(C)CCCC3)CS[C@H]12)c1csc(N)n1 [CEFEPIME] 8
